B1: ANKRD40 (parent)
chain: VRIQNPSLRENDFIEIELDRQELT

- Variants of: B1
- assay.summary: protein stability index of a GFP-peptide fusion (GPS, HEK-293T) (PSI 1-6); higher = more stable;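 further: lentivirally expressed fusions sorted by FACS into six bins by GFP to DsRed ratio, PSI derived from sequencing read proportions per bin multiplied by bin number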
- condition.context: c terminus: a fixed tail appended
parameter.measured: protein stability index
Numbers only.

Consider the reported protein stability index for these variants:
Item under review: D19A . Reported protein stability index?
1.93

Item under review: F13E . Reported protein stability index?
4.6

Item under review: I16N . Reported protein stability index?
5.11

Item under review: L23W . Reported protein stability index?
2.42

Item under review: L8Y . Reported protein stability index?
2.15

List reported protein stability index for each of these variants:
1. N5W
2. P6D

[2.23, 2.38]
